The reported measurements were obtained from ChEMBL document CHEMBL4049425.

Test system: Liver
Experiment: Unbound intrinsic clearance in mouse liver microsomes
Format: ADME, microsome
Quick rule for you: CL free under 900 mL/min/kg gets 1 (yes), anything else gets 0 (no).

IN: Answer whether the compound CCOc1cc(=O)n(C)cc1-c1cc(NS(=O)(=O)CC)ccc1Oc1ccc(Cl)cc1 has CL free strictly less than 900 mL/min/kg
OUT: 1 (yes)

IN: Answer whether the compound CCS(=O)(=O)Nc1cnc2c(c1)-c1cn(C)c(=O)cc1OCCCCc1cc(Cl)ccc1O2 has CL free strictly less than 900 mL/min/kg
OUT: 0 (no)

IN: Answer whether the compound CCOc1cc(=O)n(C)cc1-c1cc(NS(=O)(=O)CC)ccc1Oc1ccc(F)cc1F has CL free strictly less than 900 mL/min/kg
OUT: 1 (yes)

IN: Answer whether the compound CCS(=O)(=O)Nc1ccc2c(c1)-c1cn(C)c(=O)cc1OCCCCCc1cc(Cl)ccc1O2 has CL free strictly less than 900 mL/min/kg
OUT: 0 (no)

IN: Answer whether the compound CCOc1cc(=O)n(C)cc1-c1cc(NS(=O)(=O)CC)ccc1OC1CCC(F)(F)CC1 has CL free strictly less than 900 mL/min/kg
OUT: 1 (yes)

IN: Answer whether the compound Cn1cc2c(cc1=O)OCCCCc1cc(Cl)ccc1Oc1ncc(CS(C)(=O)=O)cc1-2 has CL free strictly less than 900 mL/min/kg
OUT: 1 (yes)

IN: Answer whether the compound CCS(=O)(=O)Nc1ccc(Oc2ccc(F)cc2F)c(-c2cn(C)c(=O)cc2OC)c1 has CL free strictly less than 900 mL/min/kg
OUT: 1 (yes)

IN: Answer whether the compound Cn1cc2c(cc1=O)OCCCCc1cc(Cl)ccc1Oc1ccc(CS(C)(=O)=O)cc1-2 has CL free strictly less than 900 mL/min/kg
OUT: 0 (no)

IN: Answer whether the compound CCS(=O)(=O)Nc1ccc(Oc2ccc(F)cc2F)c(-c2cn(C)c(=O)cc2OC2COC2)c1 has CL free strictly less than 900 mL/min/kg
OUT: 1 (yes)

IN: Answer whether the compound CCS(=O)(=O)Nc1ccc2c(c1)-c1cn(C)c(=O)cc1OCCCCc1cc(F)cc(F)c1O2 has CL free strictly less than 900 mL/min/kg
OUT: 1 (yes)
